system.name: EGFR L858R (BaF3-L858R cells) (Homo sapiens, UniProt P00533, L858R)
Construct: host or cells: BaF3
protocol.details: Cell degradation of EGFR, HTRF assay, BaF3-L858R cells
Format: cell-based
run.parameters: 16 h treatment, EGFR degradation
Exercise: state measured DC50 for each of the molecules provided.
One number for each entry, in nM.

1. COCCn1nc(C)c2c1OC[C@H]1CC[C@H](C1)CN1/C(=N/C(=O)c3cc(C)nc-2c3)Nc2ccc(N3CCN(C4CCN(c5cc(F)c([C@H]6CCC(=O)NC6=O)c(F)c5)CC4)[C@@H](COC)C3)cc21 [Example 160] ... 3.08

# input for lookup
Prompt line: What is its DC50 for EGFR L858R (BaF3-L858R cells) (Homo sapiens, UniProt P00533, L858R)? Entry: Cc1cc2cc(n1)-c1c(C)nn(C)c1OC[C@H]1CC[C@H](C1)CN1/C(=N/C2=O)Nc2ccc(N3CCN([C@H]4CCN(c5cc(F)c([C@H]6CCC(=O)NC6=O)c(F)c5)C4)CC3)cc21 (single isomer, unassigned) [Example 186]
Response line: 3.82

----------
system.name: p-EGFR Del19/C797S (H1975-clone #23 cells) (Homo sapiens)
protocol.details: Cell p-EGFR inhibition assay, HTRF, H1975-clone#23 (DEL19/C797S) cells
Assay type: cell-based
run.parameters: 16 h treatment, maximum percentage of pEGFR inhibition
parameter: Imax (%)
Answers are plain numbers, in %.

See these solved cases before continuing.
1) COC[C@@H]1CN(c2ccc3c(c2)N2C[C@@H]4CCC(COc5c(c(C)nn5C)-c5cc(cc(C)n5)C(=O)/N=C/2N3)C4)CCN1C1CN(C2CCN(c3cc(F)c([C@H]4CCC(=O)NC4=O)c(F)c3)CC2)C1 ... 100.8
2) Cc1cc2cc(n1)-c1c(C(F)F)nn(C)c1OC[C@H]1CCC(C1)CN1/C(=N/C2=O)Nc2ccc(N3CCN(C4CCN(c5c(F)cc(NC6CCC(=O)NC6=O)cc5F)CC4)CC3)cc21 (some centres unmarked) ... 99.2
3) COC[C@@H]1CN(c2cc3c(cc2F)N/C2=N\C(=O)c4cc(C)nc(c4)-c4c(C)nn(C)c4OC[C@H]4CC[C@H](C4)CN23)CCN1C1CCN(c2cc(F)c([C@H]3CCC(=O)NC3=O)c(F)c2)CC1 ... 102.95

Can you give me Imax (%) for all of these, one by one?
1. Cc1cc2cc(n1)-c1cnn(C)c1OC[C@H]1CCC(C1)CN1/C(=N/C2=O)Nc2ccc(N3CCN(C4CCN(c5ccc(OC6CCC(=O)NC6=O)cc5F)CC4)CC3)cc21 (some centres unmarked)
2. Cc1cc2cc(n1)-c1cnn(C)c1OC[C@H]1CC[C@H](C1)CN1/C(=N/C2=O)Nc2ccc(N3CCN(C4CCN(c5ccc(OC6CCC(=O)NC6=O)cc5)CC4)CC3)cc21 (some centres unmarked)

Response line:
[100.7, 97.9]

----------
system.name: p-EGFR Del19/C797S (H1975-clone #23 cells) (Homo sapiens, UniProt P00533)
protocol.details: Cell p-EGFR inhibition assay, HTRF, H1975-clone#23 (DEL19/C797S) cells
Type: cell-based
run.parameters: 16 h treatment, maximum percentage of pEGFR inhibition
parameter: Imax (%)

See these solved cases before continuing.
1) Cc1cc2cc(n1)-c1c(C)nn(C)c1OC[C@H]1CC[C@H](C1)CN1/C(=N/C2=O)Nc2ccc(N3CC(N(C)C4CCN(c5cc(F)c([C@H]6CCC(=O)NC6=O)c(F)c5)CC4)C3)cc21 ... 100.23%
2) Cc1cc2cc(n1)-c1c(C)nn(C)c1OC[C@H]1CC[C@H](C1)CN1/C(=N/C2=O)Nc2ccc(N3CCC(C)(CN(C)C4CCN(c5cc(F)c([C@H]6CCC(=O)NC6=O)c(F)c5)CC4)CC3)cc21 ... 102.22%
3) Cc1cc2cc(n1)-c1c(C)nn(C)c1OC[C@H]1CC[C@H](C1)CN1/C(=N/C2=O)Nc2ccc(N3C[C@@H](C)N(C4CCN(c5cc(F)c([C@H]6CCC(=O)NC6=O)c(F)c5)CC4)C[C@H]3C)cc21 ... 99.76%
4) COC[C@H]1CN(c2ccc3c(c2)N2C[C@@H]4CC[C@H](COc5c(cnn5C)-c5cc(cc(C)n5)C(=O)/N=C/2N3)C4)CCN1C1CCN(c2ccc(C3CCC(=O)NC3=O)nc2C)CC1 (some centres unmarked) ... 101.5%

# input for lookup
Prompt line: Which Imax (%) is listed for COC[C@H]1CN(c2ccc3c(c2)N2C[C@@H]4CC[C@H](COc5c(c(C)nn5C)-c5cc(cc(Cl)n5)C(=O)/N=C/2N3)C4)CCN1C1CCN(c2cc(F)c([C@H]3CCC(=O)NC3=O)c(F)c2)CC1 ?
Response line: 101.78%
